Dear all, I have gathered published Ki values for rat EP4 receptor (Rattus norvegicus); the list follows.
Decision: Ki beneath 6 nM gives Criterion met; Ki meeting or exceeding 6 nM gives Criterion not met.

CC(NC(=O)c1cccc2ccn(Cc3ccc(Cl)cc3)c12)[C@H]1CC[C@H](C(=O)O)CC1 (stereo partly drawn) :: Criterion not met
O=C(O)c1ccc(CNC(=O)c2cc(C(F)(F)F)cc3ccn(CCOc4ccc(Cl)cc4)c23)cc1 :: Criterion met
C[C@H](NC(=O)c1cccn1Cc1ccc(Cl)cc1)c1ccc(C(=O)O)cc1 :: Criterion not met

Ask: Please indicate whether the reported Ki of O=C(NC[C@H]1CC[C@H](C(=O)O)CC1)c1cc(C(F)(F)F)cc2ccn(Cc3ccc4cccnc4c3)c12 is strictly below 6 nM.
Reply: Criterion met

Ask: Please indicate whether the reported Ki of CCCc1cccc(OCc2c(Cl)cc(Cl)c(=O)n2CCc2ccc(C(=O)O)cc2)c1 is strictly below 6 nM.
Reply: Criterion met

Ask: Please indicate whether the reported Ki of CC(C)c1cccc(NCc2c(Cl)cc(Cl)c(=O)n2CCc2ccc(C(=O)O)cc2)c1 is strictly below 6 nM.
Reply: Criterion not met

Ask: Please indicate whether the reported Ki of O=C(O)c1ccc(CCn2c(CNc3cccc(OC(F)(F)F)c3)c(Cl)cc(Cl)c2=O)cc1 is strictly below 6 nM.
Reply: Criterion not met

Ask: Please indicate whether the reported Ki of Cc1ccc2c(c1)CCCN2Cc1c(Cl)cc(Cl)c(=O)n1CCc1ccc(C(=O)O)cc1 is strictly below 6 nM.
Reply: Criterion not met

Ask: Please indicate whether the reported Ki of CC(C)c1cccc(/C=C/c2c(Cl)cc(Cl)c(=O)n2CCc2ccc(C(=O)O)cc2)c1 is strictly below 6 nM.
Reply: Criterion not met

Ask: Please indicate whether the reported Ki of Cn1ccc2ccc(C(=O)N[C@@H](CCCNC(=O)OCc3ccccc3)C(=O)N[C@H]3CCC[C@H]3C(=O)O)cc21 is strictly below 6 nM.
Reply: Criterion met

Ask: Please indicate whether the reported Ki of O=C(O)c1ccc(CCn2c(/C=C/c3cccc(OC(F)(F)F)c3)c(Cl)ccc2=O)cc1 is strictly below 6 nM.
Reply: Criterion met

Ask: Please indicate whether the reported Ki of O=C(O)c1ccc(CNC(=O)c2cc(Cl)cc3ccn(Cc4cc5ccccc5cn4)c23)cc1 is strictly below 6 nM.
Reply: Criterion met

Ask: Please indicate whether the reported Ki of O=C(NC[C@H]1CC[C@H](C(=O)O)CC1)c1cc(C(F)(F)F)cc2ccn(Cc3csc(-c4ccccc4)n3)c12 is strictly below 6 nM.
Reply: Criterion met

Ask: Please indicate whether the reported Ki of Cn1c(C(=O)N[C@@H](CCCNC(=O)OCc2ccccc2)C(=O)N[C@H]2CCC[C@H]2C(=O)O)cc2ccccc21 is strictly below 6 nM.
Reply: Criterion met

Ask: Please indicate whether the reported Ki of COc1cccc(N(C)Cc2c(Cl)cc(Cl)c(=O)n2CCc2ccc(C(=O)O)cc2)c1 is strictly below 6 nM.
Reply: Criterion not met

Ask: Please indicate whether the reported Ki of O=C(NC[C@H]1CC[C@H](C(=O)O)CC1)c1cc(Cl)cc2ccn(Cc3ccc(Cl)cc3)c12 is strictly below 6 nM.
Reply: Criterion met

Ask: Please indicate whether the reported Ki of CCOc1ccccc1CCc1c(Cl)cc(Cl)c(=O)n1CCc1ccc(C(=O)O)cc1 is strictly below 6 nM.
Reply: Criterion not met
